- SYSTEM_UNDER_TEST: IDO1 (Homo sapiens (Human), UniProt P14902)
- Sequence (P14902 whole entry): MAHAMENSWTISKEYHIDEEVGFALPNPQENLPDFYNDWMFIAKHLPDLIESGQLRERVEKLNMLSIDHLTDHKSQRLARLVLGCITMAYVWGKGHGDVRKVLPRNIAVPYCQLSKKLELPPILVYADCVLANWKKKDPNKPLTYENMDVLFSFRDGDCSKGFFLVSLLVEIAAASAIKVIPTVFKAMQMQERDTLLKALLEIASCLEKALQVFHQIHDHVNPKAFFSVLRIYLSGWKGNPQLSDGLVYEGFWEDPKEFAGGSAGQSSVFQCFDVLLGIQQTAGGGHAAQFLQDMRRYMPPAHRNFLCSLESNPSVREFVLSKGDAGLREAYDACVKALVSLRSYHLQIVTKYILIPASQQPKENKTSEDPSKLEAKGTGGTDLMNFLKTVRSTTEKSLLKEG
- PROCEDURE_DETAILS: IDO1 Cellular Assay in Frozen HEK293 Cells Transiently Transfected with Human IDO1
- Assay type: cell-based
- CONDITION_DETAILS: HEK293 cells transiently transfected with human IDO1; read-out: IDO1 HEK293 Cell Assay, IC50
MEASUREMENT_LABEL: IC50 (nM)
Answer in nM, number only, no unit symbol.

Illustrative cases are given below, each with its answer.
OCCCSc1nonc1/C(=N/O)Nc1ccc(F)c(Br)c1 = 39.7
C[C@@H](O)[C@@H](CO)NC(=O)CSc1nonc1/C(=N/O)Nc1ccc(F)c(Br)c1 = 65.1
CC(=O)N[C@@H](C)CSc1nonc1/C(=N/O)Nc1ccc(F)c(C#N)c1 = 309

Request: What does the data say about its IC50? Entry: `NC(=O)CSc1nonc1/C(=N/O)Nc1ccc(F)c(Br)c1`
Response: 36.4

Request: Field entry: `CNC(=O)N1CC(Sc2nonc2/C(=N/O)Nc2ccc(F)c(Br)c2)C1`
Response: 36.9

Request: Same read-out for `OC[C@H](O)CSc1nonc1/C(=N/O)Nc1ccc(F)c(Cl)c1` ?
Response: 132

Request: Then `OCCCCSc1nonc1/C(=N/O)Nc1ccc(F)c(Br)c1` ?
Response: 56

Request: Same read-out for `ON=C(Nc1ccc(F)c(Br)c1)c1nonc1SCc1c[nH]cn1` ?
Response: 81.7

Request: Here is the next compound: `O=P(O)(O)CCSc1nonc1/C(=N/O)Nc1ccc(F)c(Br)c1`
Response: 6360

Request: Please do the same for CC(C)C(O)CCSc1nonc1/C(=N/O)Nc1ccc(F)c(Br)c1 (centres unmarked) as well.
Response: 204

Request: What do we get for CC(C)(O)C(O)CSc1nonc1/C(=N/O)Nc1ccc(F)c(Cl)c1 (single isomer, unassigned) [Example 190] ?
Response: 56.8

Request: Do the same for `ON=C(Nc1ccc(F)c(Br)c1)c1nonc1SCCn1cncn1` please
Response: 26.1

Request: Same again, this time with `O=C(CSc1nonc1/C(=N/O)Nc1ccc(F)c(Br)c1)N[C@@H]1C[C@@H](O)[C@@H](O)C1`
Response: 549

Request: Moving on to the next compound: `N#Cc1cc(N/C(=N\O)c2nonc2SCCNS(N)(=O)=O)ccc1F`
Response: 136

Request: Also need `COC(=O)CNP(=O)(CCSc1nonc1/C(=N/O)Nc1ccc(F)c(Br)c1)NCC(=O)OC` , thanks.
Response: 17.5

Request: Check `O/N=C(\Nc1ccc(F)c(Br)c1)c1nonc1O` too.
Response: 3700

Request: Another: `CCOC(=O)CCSc1nonc1/C(=N/O)Nc1ccc(F)c(Br)c1`
Response: 4490

Request: Proceed to `CN(C)CCSc1nsnc1/C(=N/O)Nc1ccc(F)c(Br)c1`
Response: 770

Request: Here is the next compound: O=c1c(NCCSc2nonc2/C(=N/O)Nc2ccc(F)c(Br)c2)c(NCC(O)CO)c1=O (centres unmarked)
Response: 1140

----------
- SYSTEM_UNDER_TEST: IDO1 (Homo sapiens (Human))
- PROCEDURE_DETAILS: IDO1 Enzyme Assay
- CONDITION_DETAILS: read-out: IDO1 Enzyme Assay, IC50; HIS-tagged recombinant IDO1, 40 nM
Listed next: entries and their corresponding IC50.
# output: bare number, implied unit nM

CC(O)CSc1nonc1/C(=N/O)Nc1ccc(F)c(Br)c1 (centres unmarked) = 58.4

Request: Entry under review: `CN1C(=O)NC[C@H]1CSc1nonc1/C(=N/O)Nc1ccc(F)c(Br)c1` . Reported IC50?
Response: 47.7

Request: Same lookup for `N#CC1(CSc2nonc2/C(=N/O)Nc2ccc(F)c(Br)c2)CC1` , please.
Response: 96.2

Request: Again, but for `CC(=O)NCCSc1nonc1/C(=N/O)Nc1ccc(F)c(C#N)c1`
Response: 104

Request: Continue with `COC(=O)CSc1nonc1/C(=N/O)Nc1ccc(F)c(Br)c1`
Response: 35.7
